Entries and their Emax (IL-2 pg/ml), NCI-H226 co-culture, Donor B values follow.
test.target: human CD137 on primary human CD8+ T cells (human, UniProt Q07011 24-255)
Sequence (Q07011 24-255): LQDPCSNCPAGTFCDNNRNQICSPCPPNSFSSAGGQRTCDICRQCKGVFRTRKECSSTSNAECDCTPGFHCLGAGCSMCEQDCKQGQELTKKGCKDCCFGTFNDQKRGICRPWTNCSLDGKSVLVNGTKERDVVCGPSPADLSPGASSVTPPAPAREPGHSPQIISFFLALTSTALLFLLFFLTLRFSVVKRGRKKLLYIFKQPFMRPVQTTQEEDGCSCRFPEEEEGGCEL
run.description: cell-based or functional assay
Reply numerically in pg/mL, unit not repeated.

Some binders with known Emax (IL-2 pg/ml), NCI-H226 co-culture, Donor B results, for comparison:
# binder, obs.value
measured = [
    ("FS22-172-003-AA/FS28-256-021 (bispecific antibody, human IgG1, kappa, L234A L235A, V domains shown, IgG1 mAb^2 with LALA) VH: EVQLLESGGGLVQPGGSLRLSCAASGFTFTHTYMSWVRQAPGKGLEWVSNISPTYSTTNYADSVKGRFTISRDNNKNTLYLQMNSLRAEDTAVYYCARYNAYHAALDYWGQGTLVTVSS VL: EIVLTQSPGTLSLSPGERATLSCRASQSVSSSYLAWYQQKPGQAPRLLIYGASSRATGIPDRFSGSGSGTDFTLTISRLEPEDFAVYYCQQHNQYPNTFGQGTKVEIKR", 1000),
    ("FS22-172-003-AA/FS28-024 (bispecific antibody, human IgG1, kappa, L234A L235A, V domains shown, IgG1 mAb^2 with LALA; also called FS28-024 in CD137 mAb^2 format) VH: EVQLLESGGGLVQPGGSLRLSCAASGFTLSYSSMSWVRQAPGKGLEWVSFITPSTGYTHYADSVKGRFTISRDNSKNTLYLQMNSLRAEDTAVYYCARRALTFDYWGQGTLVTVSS VL: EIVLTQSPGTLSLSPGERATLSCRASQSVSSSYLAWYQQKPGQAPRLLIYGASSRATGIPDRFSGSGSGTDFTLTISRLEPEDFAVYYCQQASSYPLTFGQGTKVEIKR", 1380),
]

What does the data say about its Emax (IL-2 pg/ml), NCI-H226 co-culture, Donor B? Entry: FS22-172-003-AA/FS28-256-023 (bispecific antibody, human IgG1, kappa, L234A L235A, V domains shown, IgG1 mAb^2 with LALA) VH: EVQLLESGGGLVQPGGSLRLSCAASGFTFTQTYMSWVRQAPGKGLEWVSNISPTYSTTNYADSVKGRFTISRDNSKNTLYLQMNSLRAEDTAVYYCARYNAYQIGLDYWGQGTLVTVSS VL: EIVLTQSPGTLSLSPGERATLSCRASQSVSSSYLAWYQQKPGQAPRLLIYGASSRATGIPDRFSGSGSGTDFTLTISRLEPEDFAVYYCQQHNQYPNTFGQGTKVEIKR
975
